target: HNRNPK (Homo sapiens, UniProt P61978)
measured_quantity: Kd (µM)
Numbers only, in µM.

Reported Kd ( CN(C)CCCOc1c(Br)cc(/C=C/C(=O)NCCCOc2c(Br)cc(CCN(C)C)cc2Br)cc1Br ) = 77.3

// provenance: paper PMC5577601
